Target: T1, Human TNFa N-his trimers (His-tagged TNF, produced at ESBATech) (human, UniProt P01375 77-233)
T1 construct: Captured as trimers on a Ni-NTA sensor chip by the N-terminal His tags in the Biacore assay of the general methods; also called human TNFα; human TNF alpha; not shown: N-terminal His tag
T1 sequence (P01375 77-233 limits assumed): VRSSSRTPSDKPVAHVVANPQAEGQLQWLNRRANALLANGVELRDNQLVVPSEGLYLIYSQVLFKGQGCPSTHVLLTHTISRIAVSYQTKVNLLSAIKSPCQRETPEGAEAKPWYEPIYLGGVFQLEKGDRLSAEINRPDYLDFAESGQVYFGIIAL
Assay: SPR (BIAcore), His-tagged human TNF captured on NTA chip, scFv as analyte; units taken from paragraph 184
measurement_name: pKd
Note: pKd values are expressed as the negative base-10 logarithm of concentration in M.

Any idea what its pKd is? The binder is EP43_minmax (scFv, Min graft VL with max graft VH; also called 958) scFv: EIVMTQSPSTLSASVGDRVIITCQASQSISDWLAWYQQKPGKAPKLLIYGASRLASGVPSRFSGSGSGAEFTLTISSLQPDDFATYYCQQGWSDSYVDNLFGQGTKLTVLGGGGGSGGGGSGGGGSGGGGSEVQLVESGGGLVQPGGSLRLSCTVSGFSLSSGAMSWVRQAPGKGLEWVGVIISSGATYYASWAKGRFTISKDTSKNTVYLQMNSLRAEDTAVYYCARGGPDDSNSMGTFDPWGQGTLVTVSS
9.06

Further cases:
Any idea what its pKd is? The binder is EP43_maxDHP (scFv) scFv: EIVMTQSPSTLSASVGDRVIIKCQASQSISDWLAWYQQKPGKAPKLLIYGASRLASGFPSRFSGSGSGAEFTLTISGLEPADFATYYCQQGWSDSYVDNLFGQGTKLTVLGGGGGSGGGGSGGGGSGGGGSEVQLVESGGGSVQPGGSLRLSCTVSGFSLSSGAMSWVRQAPGKGLEWVGVIISSGATYYASWAKGRFTISKDTSKNTVYLQMNSLRAEDTATYYCARGGPDDSNSMGTFDPWGQGTSVTVSS
9.94

Any idea what its pKd is? The binder is EP43_maxmin (scFv, also called 959) scFv: EIVMTQSPSTLSASVGDRVIIKCQASQSISDWLAWYQQKPGKAPKLLIYGASRLASGFPSRFSGSGSGAEFTLTISGLEPADFATYYCQQGWSDSYVDNLFGQGTKLTVLGGGGGSGGGGSGGGGSGGGGSEVQLVESGGGLVQPGGSLRLSCAASGFSLSSGAMSWVRQAPGKGLEWVSVIISSGATYYASWAKGRFTISRDNSKNTLYLQMNSLRAEDTAVYYCAKGGPDDSNSMGTFDPWGQGTLVTVSS
7.44

Any idea what its pKd is? The binder is EP43_max (scFv, scFv NH2-VL-(GGGGS)4-VH-COOH; also called 676) scFv: EIVMTQSPSTLSASVGDRVIIKCQASQSISDWLAWYQQKPGKAPKLLIYGASRLASGFPSRFSGSGSGAEFTLTISGLEPADFATYYCQQGWSDSYVDNLFGQGTKLTVLGGGGGSGGGGSGGGGSGGGGSEVQLVESGGGLVQPGGSLRLSCTVSGFSLSSGAMSWVRQAPGKGLEWVGVIISSGATYYASWAKGRFTISKDTSKNTVYLQMNSLRAEDTAVYYCARGGPDDSNSMGTFDPWGQGTLVTVSS
9.60
